Data origin, for the record: PubChem BioAssay (EPA / NIEHS)

- system-under-test: Estrogen receptor (Homo sapiens)
- assay-method-text: NVS_NR_hER: NovaScreen (NVS) Nuclear Receptor Binding Assay for human Estrogen Receptor (ER) (AID 2283348)
- Procedure: NVS_NR_hER is a biochemical, single-readout assay that uses extracted gene-proteins from MCF7 in a cell-free assay. Measurements were taken 18 hours after chemical dosing in a 96-well plate.NVS_NR_hER is one of one assay component(s) measured or calculated from the NVS_NR_hER assay. […] This assay endpoint, NVS_NR_hER, was analyzed in the positive analysis fitting direction relative to DMSO as the negative control and baseline of activity. […]
Inconclusive results are not listed. Active and inactive are the calls of the source. How the source made its calls: active means hit-call score of the fitted dose curve at least 0.9, where 1 is the maximum; inconclusive means response in the unintended direction; inactive means score below 0.9.

| compound | AC50 |
| --- | --- |
| CCc1cccc(CC)c1N | 10 µM (active) |
| CCCCC(CC)C(=O)OCCOCCOCCOC(=O)C(CC)CCCC (centres undefined) | inactive |
| NNC(=O)c1ccncc1 | inactive |
| CCCC(CCC)C(=O)O | inactive |

====

- assay-method-text: APR_HepG2_MitoMass_72hr: Apredica 72-hour HepG2 Assay for Mitochondrial Mass (AID 2282924);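 further: MitoTracker Red CMXRos stain intensity per cell imaged as mitochondrial mass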
- assay-conditions: high-content imaging, actives raise or lower the signal
Calls of active or inactive are those of the source. The calls were made as follows: active = hit-call score of the fitted dose curve at least 0.9, where 1 is the maximum; inactive = score below 0.9.
measure-name: outcome

| query-smiles | outcome |
| --- | --- |
| NC(N)=O | inactive |
| CCCC(CCC)C(=O)O | inactive |
| OC[C@H]1O[C@@](CO)(O[C@H]2O[C@H](CO)[C@@H](O)[C@H](O)[C@H]2O)[C@@H](O)[C@@H]1O | inactive |
| Cc1nc(-c2ccccn2)ncc1C(=O)Nn1cc(C)c2cc(F)ccc21 | inactive |
| CCCc1ccccc1 | inactive |
| CC[C@H](C)C(=O)O[C@H]1C[C@H](O)C=C2C=C[C@H](C)[C@H](CC[C@@H](O)C[C@@H](O)CC(=O)O)[C@H]21 | inactive |

O=C(O)c1ccc2c(c1)nc(C(=O)NC1CCN(C3CC3)CC1)n2Cc1cc(-c2ccc(Cl)s2)on1 yielded outcome of inactive

OC[C@H]1O[C@@H]2O[C@H]3[C@H](O)[C@@H](O)[C@@H](O[C@H]4[C@H](O)[C@@H](O)[C@@H](O[C@H]5[C@H](O)[C@@H](O)[C@@H](O[C@H]6[C@H](O)[C@@H](O)[C@@H](O[C@H]7[C@H](O)[C@@H](O)[C@@H](O[C@H]1[C@H](O)[C@H]2O)O[C@@H]7CO)O[C@@H]6CO)O[C@@H]5CO)O[C@@H]4CO)O[C@@H]3CO yielded outcome of inactive

====

- assay-method-text: Tanguay_ZF_120hpf_OTIC_legacy: (Legacy) Oregon State University Tanguay Lab 120 Hour Post-fertilization zebrafish Assay for Otic Vesicle Malformation (AID 2283639)
Inconclusive results are not listed. The source made the active and inactive calls. How the source made its calls: active means hit-call score of the fitted dose curve at least 0.9, where 1 is the maximum; inconclusive means response in the unintended direction; inactive means score below 0.9.
Parameter call: string, one of active, inactive

// below: answered compounds
| compound | class-assignment |
| --- | --- |
| CCCCCCCCCCCCCCO | inactive |
| OCCNCCO | inactive |
| CCCCC(CC)C(=O)OCCOCCOCCOC(=O)C(CC)CCCC (configuration not stated) | inactive |
| COCc1nnc(-c2ccc[n+]([O-])c2)n1-c1c(Cl)c(Cl)cc2[nH]c(=O)c(=O)[nH]c12 | inactive |

What was the test verdict on NC(=O)N(O)[C@@H]1COc2cc(OCc3ccccc3)ccc21 ?
inactive

What was the test verdict on CC(C)CC(C)O (configuration not stated) ?
inactive

What was the test verdict on Cc1nc(-c2ccccn2)ncc1C(=O)Nn1cc(C)c2cc(F)ccc21 ?
inactive
